- TARGET_ENTITY: T1, Human GDF15 Fc (human, UniProt Q99988 195-308, limits assumed, biotinylated (EZ-Link Sulfo-NHS-Biotinylation Kit) in the SPR assay)
- T1 construct: also called human GDF15-Fc fusion; biotinylated Human GDF15 Fc; not shown: Fc part
- T1 sequence: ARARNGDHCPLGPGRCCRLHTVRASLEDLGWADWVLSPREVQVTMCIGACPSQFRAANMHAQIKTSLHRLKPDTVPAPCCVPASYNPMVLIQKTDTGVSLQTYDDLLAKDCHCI
- TEST_METHOD_NOTES: SPR Biacore 8K; biotinylated antigen captured, Fab analyte
MEASURED_ATTRIBUTE: kon (M⁻¹ s⁻¹)

# BINDER, MEASURED_ATTRIBUTE, READING_UNIT, OBSERVED_RESULT
records = [
    ("GDF15 antibody agent Clone E, Fab (Fab, V domains shown, Fab; CH1 and CL of the Fab not specified; also called Fab of Clone E) VH: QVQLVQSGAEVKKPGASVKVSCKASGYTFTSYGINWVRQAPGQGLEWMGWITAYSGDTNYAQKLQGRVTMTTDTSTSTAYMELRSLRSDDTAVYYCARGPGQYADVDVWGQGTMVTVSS VL: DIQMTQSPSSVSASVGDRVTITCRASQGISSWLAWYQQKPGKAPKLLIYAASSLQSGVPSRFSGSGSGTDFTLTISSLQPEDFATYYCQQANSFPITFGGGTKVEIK", "kon", "M⁻¹ s⁻¹", "2.63e+06"),
    ("GDF15 antibody agent Clone N, Fab (Fab, V domains shown, Fab; CH1 and CL of the Fab not specified; also called Fab of Clone N) VH: QVQLVQSGAEVKKPGASVKVSCKASGYTFTDYGIFWVRQAPGQGLEWMGWITAYSGDTHYAQKLQGRVTMTTDTSTSTAYMELRSLRSDDTAVYYCVRDTQYGGSPYWGQGTLVTVSS VL: EIVMTQSPATLSVSPGERATLSCRASQSVSSNLAWYQQKPGQAPRLLIYGASTRATGIPARFSGSGSGTEFTLTISSLQSEDFAVYYCQQYNNWPITFGGGTKVEIK", "kon", "M⁻¹ s⁻¹", "5.84e+06"),
    ("GDF15 antibody agent Clone O, Fab (Fab, V domains shown, Fab; CH1 and CL of the Fab not specified; also called Fab of Clone O) VH: QVQLVQSGAEVKKPGATVKVSCKASGYTFDSLGMSWVRQAPGQGLEWMGYISTYSGDTVYAQKLQGRVTMTTDTSTSTAYMELRSLRSDDTAVYYCARESGQQVSALDPWGQGTLVTVSS VL: DIQMTQSPSSVSASVGDRVTITCRASQGISRWLAWYQQKPGKAPKLLIYAASSLQSGVPSRFSGSGSGTDFTLTISSLQPEDFATYYCQQGASFPLTFGGGTKVEIK", "kon", "M⁻¹ s⁻¹", "2.08e+06"),
]

FYI, the data here is from patent US20250382359A1.
